Test: Plasma and urine pharmacokinetics (HPLC-UV) in patients after 60-min IV infusion
Type: in vivo, human
Settings: human, plasma, intravenous, 12.2 mg, patient no. 18; 12.2 mg m-2; day 1 course 1; two-compartment model

molecule	AUC [ng·h/mL]
C[C@@](O)(/C=C/[C@H]1CC=CC(=O)O1)[C@@H](C[C@@H](O)\C=C/C=C\C=C\CO)OP(=O)(O)O	5320

###

Experiment: Plasma and urine pharmacokinetics (HPLC-UV) in patients after 60-min IV infusion
Assay type: in vivo, human
Details: human, plasma, intravenous, 6.6 mg, patient no. 11; 6.6 mg m-2; day 1 course 1; two-compartment model; read-out: t1/2 (terminal) (converted)
readout-type: half-life (min)

compound	readout-type	val
C[C@@](O)(/C=C/[C@H]1CC=CC(=O)O1)[C@@H](C[C@@H](O)\C=C/C=C\C=C\CO)OP(=O)(O)O [fostriecin]	half-life	28.2

###

Test: Plasma and urine pharmacokinetics (HPLC-UV) in patients after 60-min IV infusion
Format: in vivo, human
Details: human, plasma, intravenous, 6.6 mg, patient no. 11; 6.6 mg m-2; day 1 course 1; two-compartment model
readout-type: AUC (ng·h/mL)

compound	units-symbol	val
C[C@@](O)(/C=C/[C@H]1CC=CC(=O)O1)[C@@H](C[C@@H](O)\C=C/C=C\C=C\CO)OP(=O)(O)O [fostriecin]	ng·h/mL	1650

###

Assay: Plasma and urine pharmacokinetics (HPLC-UV) in patients after 60-min IV infusion
Type: in vivo, human
Conditions: human, plasma, intravenous, 4 mg, patient no. 5; 4 mg m-2; day 1 course 1; observed value
readout-type: Cmax (ng/mL)

compound	val
C[C@@](O)(/C=C/[C@H]1CC=CC(=O)O1)[C@@H](C[C@@H](O)\C=C/C=C\C=C\CO)OP(=O)(O)O [fostriecin]	1160

###

Experiment: Plasma and urine pharmacokinetics (HPLC-UV) in patients after 60-min IV infusion
Assay type: in vivo, human
Settings: human, plasma, intravenous, 2 mg, patient no. 3; 2 mg m-2; day 1 course 1; one-compartment model

compound	AUC [ng·h/mL]
C[C@@](O)(/C=C/[C@H]1CC=CC(=O)O1)[C@@H](C[C@@H](O)\C=C/C=C\C=C\CO)OP(=O)(O)O [fostriecin]	810

###

Assay: Plasma and urine pharmacokinetics (HPLC-UV) in patients after 60-min IV infusion
Type: in vivo, human
Conditions: human, plasma, intravenous, 12.2 mg, patient no. 18; 12.2 mg m-2; day 1 course 1; two-compartment model; read-out: MRT

molecule	MRT [h]
C[C@@](O)(/C=C/[C@H]1CC=CC(=O)O1)[C@@H](C[C@@H](O)\C=C/C=C\C=C\CO)OP(=O)(O)O	3.61

###

Experiment: Plasma and urine pharmacokinetics (HPLC-UV) in patients after 60-min IV infusion
Format: in vivo, human
Conditions: human, plasma, intravenous, two-compartment model; 95% CI 0-0.76 h; read-out: mean plasma half-life (initial) (converted)

molecule	half-life (min)
C[C@@](O)(/C=C/[C@H]1CC=CC(=O)O1)[C@@H](C[C@@H](O)\C=C/C=C\C=C\CO)OP(=O)(O)O	21.6

###

Assay: Plasma and urine pharmacokinetics (HPLC-UV) in patients after 60-min IV infusion
Type: in vivo, human
Details: human, plasma, intravenous, 10 mg, patient no. 15; 10 mg m-2; day 1 course 1; two-compartment model; read-out: t1/2 (initial) (converted)

molecule	half-life [min]
C[C@@](O)(/C=C/[C@H]1CC=CC(=O)O1)[C@@H](C[C@@H](O)\C=C/C=C\C=C\CO)OP(=O)(O)O [fostriecin]	18

###

Experiment: Plasma and urine pharmacokinetics (HPLC-UV) in patients after 60-min IV infusion
Format: in vivo, human
Conditions: human, plasma, intravenous, 10 mg, patient no. 13; 10 mg m-2; day 1 course 1; two-compartment model; read-out: t1/2 (terminal) (converted)
readout-type: half-life (min)

molecule	val
C[C@@](O)(/C=C/[C@H]1CC=CC(=O)O1)[C@@H](C[C@@H](O)\C=C/C=C\C=C\CO)OP(=O)(O)O	55.8

###

Experiment: Plasma and urine pharmacokinetics (HPLC-UV) in patients after 60-min IV infusion
Assay type: in vivo, human
Details: human, plasma, intravenous, 2 mg, patient no. 3; 2 mg m-2; day 1 course 1; observed value
readout-type: Cmax

molecule	readout-type	val
C[C@@](O)(/C=C/[C@H]1CC=CC(=O)O1)[C@@H](C[C@@H](O)\C=C/C=C\C=C\CO)OP(=O)(O)O	Cmax	597 ng/mL

###

Experiment: Plasma and urine pharmacokinetics (HPLC-UV) in patients after 60-min IV infusion
Type: in vivo, human
Conditions: human, plasma, intravenous, 10 mg, patient no. 13; 10 mg m-2; day 1 course 1; observed value

molecule	Cmax
C[C@@](O)(/C=C/[C@H]1CC=CC(=O)O1)[C@@H](C[C@@H](O)\C=C/C=C\C=C\CO)OP(=O)(O)O	2240 ng/mL

###

Assay: Plasma and urine pharmacokinetics (HPLC-UV) in patients after 60-min IV infusion
Format: in vivo, human
Conditions: human, plasma, intravenous, 10 mg, patient no. 13; 10 mg m-2; day 1 course 1; two-compartment model

compound	AUC
C[C@@](O)(/C=C/[C@H]1CC=CC(=O)O1)[C@@H](C[C@@H](O)\C=C/C=C\C=C\CO)OP(=O)(O)O [fostriecin]	3350 ng·h/mL

###

Test: Plasma and urine pharmacokinetics (HPLC-UV) in patients after 60-min IV infusion
Assay type: in vivo, human
Conditions: human, plasma, intravenous, 4 mg, patient no. 5; 4 mg m-2; day 1 course 1; one-compartment model
readout-type: AUC (ng·h/mL)

compound	readout-type	val
C[C@@](O)(/C=C/[C@H]1CC=CC(=O)O1)[C@@H](C[C@@H](O)\C=C/C=C\C=C\CO)OP(=O)(O)O [fostriecin]	AUC	1360

###

Experiment: Plasma and urine pharmacokinetics (HPLC-UV) in patients after 60-min IV infusion
Format: in vivo, human
Details: human, plasma, intravenous, 20 mg, patient no. 20; 20 mg m-2; day 1 course 1; two-compartment model; read-out: t1/2 (terminal) (converted)

molecule	units-symbol	half-life
C[C@@](O)(/C=C/[C@H]1CC=CC(=O)O1)[C@@H](C[C@@H](O)\C=C/C=C\C=C\CO)OP(=O)(O)O	min	45.6

###

Assay: Plasma and urine pharmacokinetics (HPLC-UV) in patients after 60-min IV infusion
Assay type: in vivo, human
Conditions: human, plasma, intravenous, 2 mg, patient no. 4; 2 mg m-2; day 1 course 1; one-compartment model; read-out: MRT

molecule	MRT
C[C@@](O)(/C=C/[C@H]1CC=CC(=O)O1)[C@@H](C[C@@H](O)\C=C/C=C\C=C\CO)OP(=O)(O)O	30.6 min

###

Assay: Plasma and urine pharmacokinetics (HPLC-UV) in patients after 60-min IV infusion
Format: in vivo, human
Settings: human, plasma, intravenous, 4 mg, patient no. 7; 4 mg m-2; day 1 course 1; two-compartment model

molecule	units-symbol	AUC
C[C@@](O)(/C=C/[C@H]1CC=CC(=O)O1)[C@@H](C[C@@H](O)\C=C/C=C\C=C\CO)OP(=O)(O)O	ng·h/mL	1490

###

Test: Plasma and urine pharmacokinetics (HPLC-UV) in patients after 60-min IV infusion
Type: in vivo, human
Settings: human, plasma, intravenous, 20 mg, patient no. 20; 20 mg m-2; day 1 course 1; two-compartment model; read-out: MRT
readout-type: MRT (min)

molecule	readout-type	val
C[C@@](O)(/C=C/[C@H]1CC=CC(=O)O1)[C@@H](C[C@@H](O)\C=C/C=C\C=C\CO)OP(=O)(O)O	MRT	49.8

###

Assay: Plasma and urine pharmacokinetics (HPLC-UV) in patients after 60-min IV infusion
Type: in vivo, human
Conditions: human, plasma, intravenous, 4 mg, patient no. 6; 4 mg m-2; day 1 course 1; one-compartment model; read-out: t1/2 (converted)
Experimental: Fostriecin (CI-920) is a topoisomerase (topo) II catalytic activity inhibitor (Boritzki et al, 1988) (Figure 1). […] Drug pharmacokinetics was analysed with high performance liquid chromatography with UV-detection. […] A metabolite, most probably dephosphorylated fostriecin, was detected in plasma and urine. […]

molecule	half-life [min]
C[C@@](O)(/C=C/[C@H]1CC=CC(=O)O1)[C@@H](C[C@@H](O)\C=C/C=C\C=C\CO)OP(=O)(O)O	27.6

###

Assay: Plasma and urine pharmacokinetics (HPLC-UV) in patients after 60-min IV infusion
Type: in vivo, human
Conditions: human, plasma, intravenous, 2 mg, patient no. 1; 2 mg m-2; day 1 course 1; one-compartment model

compound	units-symbol	AUC
C[C@@](O)(/C=C/[C@H]1CC=CC(=O)O1)[C@@H](C[C@@H](O)\C=C/C=C\C=C\CO)OP(=O)(O)O [fostriecin]	ng·h/mL	739

###

Experiment: Plasma and urine pharmacokinetics (HPLC-UV) in patients after 60-min IV infusion
Assay type: in vivo, human
Details: human, plasma, intravenous, 2 mg, patient no. 4; 2 mg m-2; day 1 course 1; one-compartment model; read-out: t1/2 (converted)

molecule	half-life
C[C@@](O)(/C=C/[C@H]1CC=CC(=O)O1)[C@@H](C[C@@H](O)\C=C/C=C\C=C\CO)OP(=O)(O)O	21 min
